- Assayed Target: Gal(b1-2)Gal
- Protocol: glycan array binding signal (z-score within array); higher = stronger binding
- Test Settings: glycan notation: IUPAC condensed, linker removed
Shown is part of a subset that was picked to be rich in the strongest signals.
Assay Metric: glycan array binding signal (z-score)
Just the number, please, no unit attached.

Study these solved cases before continuing.
>>> experimental_result("Pbx1CASH domain (Cryptococcus neoformans) (protein) MDETKPLWGNPRADGISLACKDSIVERNVVYDATDGAIVLFGSAGSTVKNNHVYARTRVILGGINLVDYEPWDGDYTNVKVHHNHLYALGRYFKVGIVIGPASWSDDTESVVHSASVTDNEFSGGYWGYGIVVASAKNFEVLRNKVIWDGEQGVARFSGVPGS")
-0.215
>>> experimental_result("HA-00510 (Pseudomonas aeruginosa), Q02V39_PSEAB (protein) GVPIVNIATPNGAGLSNNHFRDYNVGANGLILNNATGKTQGTQLGGIILGNPNLKGQAAQVILNQVTGGNRSTLAGYTEVAGQSARVIVANPHGITCQGCGFINTPRATLTTGKPIMDGQRLERFQVDGGDIVVEGAELNVGNLEQFDLITRSAKLNAKLYAKNLNIVTGRNDVQADSLQATPRAADGSEKPQLAIDSSALGGMYAGAIRLVGTEQGVGVKLAGDMAASGGDIRIDASGKLSLAQASSQGDLKIAAQAVELNGKTYAGGSAEIRSAEELVNRQS")
-0.657

Read the next record carefully.
-- ask Suppose we examine the binder Epa20 (Candida glabrata) (protein) MGSSHHHHHHSSGLVPRGSHMASSNIPNNYPLGCSNKYSGHLPGLKMELYSYNYVNPRHPDPQNPGKLDQLYDPNLLGTYECFDSSYKDINYPRVGYKSKTLIGRSDGVSGILNFNFVPPWGCMPQKGQLPPAYNFKSNITLSNFTMILFGYFKPKISGNHIFSLHGDDLIYLNFGAGNAFDCCRQESSADNFGNYQAFSLWGINWEKKTLTVYLDMNTYYPIRIFYNNRDYQAIFNFSFKTEFDSSPVIDFQDYFFFLRDIDGGCPGEV ; what glycan array binding signal (z-score) value has been reported?
-- reply -0.763

Just for reference, the supplement of paper PMC8728848 is where these values come from.
